Target: human PD-L1 (human) (UniProt Q9NZQ7)
Sequence (Q9NZQ7 19-290): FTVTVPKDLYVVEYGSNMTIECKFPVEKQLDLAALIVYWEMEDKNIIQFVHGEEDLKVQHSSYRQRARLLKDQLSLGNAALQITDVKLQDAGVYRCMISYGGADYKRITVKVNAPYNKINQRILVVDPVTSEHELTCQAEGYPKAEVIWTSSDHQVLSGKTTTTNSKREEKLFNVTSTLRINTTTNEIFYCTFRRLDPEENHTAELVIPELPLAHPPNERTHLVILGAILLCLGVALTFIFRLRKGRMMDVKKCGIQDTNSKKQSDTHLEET
Test: flow cytometry, CHO cells expressing PD-L1
measureName: Fold change to WT CD80 (fold)

Solved cases (3 shown):
INSERT INTO measurements (binder, measurename, observedvalue) VALUES
  ('CD80 T13R/Q33R/E35D/M47L/V68M/L85M IgV-Fc (Fc fusion) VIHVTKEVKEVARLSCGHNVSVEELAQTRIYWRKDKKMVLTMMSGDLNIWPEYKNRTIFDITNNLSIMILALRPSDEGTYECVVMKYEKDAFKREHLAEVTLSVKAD', 'Fold change to WT CD80', 368),
  ('CD80 H18Y/E35D/V68M/T79M/L85M IgV-Fc (Fc fusion) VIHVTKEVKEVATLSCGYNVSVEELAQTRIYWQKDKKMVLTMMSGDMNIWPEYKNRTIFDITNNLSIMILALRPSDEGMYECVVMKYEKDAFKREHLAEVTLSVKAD', 'Fold change to WT CD80', 290),
  ('CD80 T13R/Q33R/E35D/M38I/M47L/V68M/E95V/L97Q IgV-Fc (Fc fusion) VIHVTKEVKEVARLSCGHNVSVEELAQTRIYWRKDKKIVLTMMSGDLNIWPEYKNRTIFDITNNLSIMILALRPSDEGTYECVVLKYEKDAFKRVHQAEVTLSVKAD', 'Fold change to WT CD80', 372);

I = CD80 T13R/Q33R/E35D/M47L/V68M IgV-Fc (Fc fusion) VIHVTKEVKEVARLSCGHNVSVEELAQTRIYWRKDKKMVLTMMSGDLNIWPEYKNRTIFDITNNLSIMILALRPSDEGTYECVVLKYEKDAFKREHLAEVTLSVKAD
II = CD80 E35D/M47V/N48K/V68M/L85M IgV-Fc (Fc fusion) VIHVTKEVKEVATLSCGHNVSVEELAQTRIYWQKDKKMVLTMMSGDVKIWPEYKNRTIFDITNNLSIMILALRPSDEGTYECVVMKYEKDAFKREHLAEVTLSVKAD
[Q] // returns I or II , whichever has the lower Fold change to WT CD80 To answer, give the label that identifies your chosen option.
[A] II
